Data provenance is patent US20230278972A1.

System: Foxtail, Giant (giant foxtail, Setaria faberi)
Test: Test A preemergence, Foxtail, Giant
Format: in vivo
Conditions: Preemergence, 125 g ai/ha; visual injury, 0 to 100 scale (0 no effect, 100 complete control), approx. 10 days
Excerpt: Seeds of plant species selected from barnyardgrass (Echinochloa crus-galli), kochia (Bassia scoparia), ragweed (common ragweed, Ambrosia artemisiifolia), Ryegrass, Italian (Italian ryegrass, Lolium multiflorum), Foxtail, Giant (giant foxtail, Setaria faberi), and pigweed (Amaranthus retroflexus) were planted into a blend of loam soil and sand and treated preemergence with a directed soil spray using test chemicals formulated in a non-phytotoxic solvent mixture which included a surfactant. […]
Please use true (1) for Plant response rating, Foxtail, Giant under 80 and false (0) for everything else, ties included.

Consider the following illustrative entries.
[[record]]
structure_smiles = "Cc1cc(F)c(C(=O)N2CCOCC2)cc1N(S(=O)(=O)C(F)(F)F)S(=O)(=O)C(F)(F)F"
target_desc = "Foxtail, Giant (giant foxtail, Setaria faberi)"
classification = "true (1)"

[[record]]
structure_smiles = "Cc1cc(C)c(C(=O)N2CCC(F)(F)C2)cc1NS(=O)(=O)C(F)(F)F"
target_desc = "Foxtail, Giant (giant foxtail, Setaria faberi)"
classification = "true (1)"

[[record]]
structure_smiles = "Cc1cc(Cl)c(N(S(=O)(=O)C(F)(F)F)S(=O)(=O)C(F)(F)F)cc1C1=NOC(C)(C)C1"
target_desc = "Foxtail, Giant (giant foxtail, Setaria faberi)"
classification = "true (1)"


Request: Check if Plant response rating, Foxtail, Giant falls below 80 for Cc1cc(Cl)c(C(=O)N2CCCCC2)cc1NS(=O)(=O)C(F)(F)F .
Result: false (0)

Request: Likewise for Cc1cc(C)c(N(S(=O)(=O)C(F)(F)F)S(=O)(=O)C(F)(F)F)cc1N1CC2(CCCCC2)OC1=O ?
Result: false (0)

Request: Likewise for Cc1cc(C)c(N2CC3(CCCCC3)OC2=O)cc1NS(=O)(=O)C(F)(F)F ?
Result: false (0)

----------
Tested on: Oat, Wild (wild oat, Avena fatua)
Assay: Test A1 preemergence, Oat, Wild
Assay type: in vivo
Settings: 125 g ai/ha, 0 to 100 scale, 0 no effect, 100 complete control
ENDPOINT NAME: Plant response rating, Oat, Wild
Write the number on its own, no unit after it.

Previously resolved entries follow.
[[record]]
compound = "Cc1ccc(C2=NOC3CCCC23)cc1NS(=O)(=O)C(F)(F)F (stereo not drawn)"
target_desc = "Oat, Wild (wild oat, Avena fatua)"
experimental_value = 0

[[record]]
compound = "Cc1c(NS(=O)(=O)C(F)(F)F)cc(C(=O)N2CCCCC2)c(C)c1C"
target_desc = "Oat, Wild (wild oat, Avena fatua)"
experimental_value = 10

[[record]]
compound = "Cc1cc(C)c(N(COC(=O)C(C)(C)C)S(=O)(=O)C(F)(F)F)cc1C1=NOC2(C)CCCC12 (stereo not drawn)"
target_desc = "Oat, Wild (wild oat, Avena fatua)"
experimental_value = 0

[[record]]
compound = "C#CCN(C)C(=O)c1cc(NS(=O)(=O)C(F)(F)F)c(C)c(C)c1C"
target_desc = "Oat, Wild (wild oat, Avena fatua)"
experimental_value = 20


Request: State the recorded Plant response rating, Oat, Wild for this entry: Cc1c(C(=O)N2CCOCC2)cc(N(COC(=O)C(C)(C)C)S(=O)(=O)C(F)(F)F)c(C)c1C
Result: 40

Request: Likewise for Cc1cc(C)c(N(COC(=O)OC(C)C)S(=O)(=O)C(F)(F)F)cc1C1=NOC2CCCC12 (stereo not drawn) ?
Result: 0

----------
Plant response rating, Ragweed overview
System: ragweed (common ragweed, Ambrosia artemisiifolia)
Test: Test A1 preemergence, ragweed
Type: in vivo
Details: 125 g ai/ha, 0 to 100 scale, 0 no effect, 100 complete control
Write the number on its own, no unit after it.

Previously resolved entries follow.
[[record]]
compound = "COC1CCC2(CC1)CCN(c1cc(NS(=O)(=O)C(F)(F)F)c(C)cc1C)C2=O (centres unmarked)"
experimental_value = 80

[[record]]
compound = "Cc1cc(C)c(N2CCC3(CCC(C)CC3)C2=O)cc1NS(=O)(=O)C(F)(F)F (centres unmarked)"
experimental_value = 50


Request: Lookup: Plant response rating, Ragweed / ragweed (common ragweed, Ambrosia artemisiifolia) / Cc1cc(C)c(N(S(=O)(=O)C(F)(F)F)S(=O)(=O)C(F)(F)F)cc1N1CCC2(CCC(C(F)(F)F)CC2)C1=O (centres unmarked)
Result: 60

Request: Likewise for Cc1cc(C)c(N(COC(=O)C(C)(C)C)S(=O)(=O)C(F)(F)F)cc1N1CCC2(CCC(C)CC2)C1=O (centres unmarked) ?
Result: 10

Request: Likewise for Cc1cc(C)c(N2CC3(CCCCC3)CC2=O)cc1NS(=O)(=O)C(F)(F)F ?
Result: 0

----------
System: Oat, Wild (wild oat, Avena fatua)
Experiment: Test A1 preemergence, Oat, Wild
Format: in vivo
Conditions: 31 g ai/ha, 0 to 100 scale (0 no effect, 100 complete control)
From the text: […]
Plant response rating, Oat, Wild overview
Write the number on its own, no unit after it.

Previously resolved entries follow.
[[record]]
compound = "Cc1c(C(=O)N2CCSCC2)cc(N(COC(=O)C(C)(C)C)S(=O)(=O)C(F)(F)F)c(C)c1C"
experimental_value = 0

[[record]]
compound = "Cc1cc(C)c(C2=NOC3OCCC23)cc1NS(=O)(=O)C(F)(F)F (centres unmarked)"
experimental_value = 10

[[record]]
compound = "Cc1c(C(=O)N(C)C)cc(NS(=O)(=O)C(F)(F)F)c(Cl)c1F"
experimental_value = 0

[[record]]
compound = "Cc1c(C(=O)N2CCC(C)CC2)cc(N(COC(=O)C(C)(C)C)S(=O)(=O)C(F)(F)F)c(C)c1C"
experimental_value = 0


Moving on to another compound below.
Request: State the recorded Plant response rating, Oat, Wild for this entry: Cc1cc(C)c(N(COC(=O)C(C)C)S(=O)(=O)C(F)(F)F)cc1C1=NOC2CCCC12 (centres unmarked)
Result: 0

----------
System: ragweed (common ragweed, Ambrosia artemisiifolia)
Assay: Test A1 preemergence, ragweed
Type: in vivo
Conditions: 31 g ai/ha, 0 to 100 scale (0 no effect, 100 complete control)
Plant response rating, Ragweed overview
Write the number on its own, no unit after it.

Previously resolved entries follow.
[[record]]
compound = "Cc1cc(C)c(N(COC(=O)C(C)(C)C)S(=O)(=O)C(F)(F)F)cc1C1=NOC(C(C)C)C1 (centres unmarked)"
experimental_value = 0

[[record]]
compound = "COC1CCCN(C(=O)c2cc(NS(=O)(=O)C(F)(F)F)c(Cl)c(F)c2C)C1 (centres unmarked)"
experimental_value = 0


Request: Lookup: Plant response rating, Ragweed / ragweed (common ragweed, Ambrosia artemisiifolia) / Cc1cc(C)c(N2CCC3(CCC(C)CC3)C2=O)cc1NS(=O)(=O)C(F)(F)F (centres unmarked)
Result: 20

Request: Likewise for Cc1cc(C)c(N(COC(=O)C(C)(C)C)S(=O)(=O)C(F)(F)F)cc1N1CCC2(CCC(C)CC2)C1=O (centres unmarked) ?
Result: 0

Request: Likewise for Cc1c(NS(=O)(=O)C(F)(F)F)cc(C(=O)N2CCCCC2)c(C)c1C ?
Result: 90

----------
Plant response rating, Kochia overview
Test system: kochia (Bassia scoparia)
Assay: Test A preemergence, kochia
Assay type: in vivo
Details: Preemergence, 500 g ai/ha; 0 to 100 scale (0 no effect, 100 complete control)
Write the number on its own, no unit after it.

Previously resolved entries follow.
[[record]]
compound = "Cc1cc(C)c(-c2ccnn(CC(C)C)c2=O)cc1NS(=O)(=O)C(F)(F)F [Compound 77]"
experimental_value = 0

[[record]]
compound = "Cc1cc(C)c(C2=NOC3(C2)CC(C)OC(C)C3)cc1NS(=O)(=O)C(F)(F)F (single isomer, unassigned) [Compound 173]"
experimental_value = 90

[[record]]
compound = "C#CCN(CC#C)C(=O)c1cc(NS(=O)(=O)C(F)(F)F)c(C)cc1C [Compound 187]"
experimental_value = 80

[[record]]
compound = "CCn1nc(C)cc(-c2cc(N(S(=O)(=O)C(F)(F)F)S(=O)(=O)C(F)(F)F)c(C)cc2C)c1=O [Compound 52]"
experimental_value = 90

[[record]]
compound = "COc1cc(-c2cc(N(S(=O)(=O)C(F)(F)F)S(=O)(=O)C(F)(F)F)c(C)cc2C)c(=O)n(C)n1 [Compound 35]"
experimental_value = 20


Moving on to another compound below.
Request: State the recorded Plant response rating, Kochia for this entry: COCC1(COC)CC(c2cc(NS(=O)(=O)C(F)(F)F)c(C)cc2C)=NO1 [Compound 104]
Result: 50

----------
System: kochia (Bassia scoparia)
Experiment: Test A1 postemergence, kochia
Type: in vivo
Settings: Postemergence, 31 g ai/ha; 0 to 100 scale (0 no effect, 100 complete control); 10 days
Plant response rating, Kochia overview
Write the number on its own, no unit after it.

Previously resolved entries follow.
[[record]]
molecule = "Cc1cc(C2CC2)c(C2=NOC3CCCC23)cc1N(COC(=O)C(C)(C)C)S(=O)(=O)C(F)(F)F (stereo not shown) [Compound 355]"
target_desc = "kochia (Bassia scoparia)"
experimental_value = 0

[[record]]
molecule = "Cc1cc(C)c(N(COC(=O)C(C)(C)C)S(=O)(=O)C(F)(F)F)cc1C(=O)N1CCC(c2ccccc2)CC1 [Compound 364]"
target_desc = "kochia (Bassia scoparia)"
experimental_value = 0


Request: State the recorded Plant response rating, Kochia for this entry: Cc1cc(C)c(C2=NOC3(C)CCCC23)cc1NS(=O)(=O)C(F)(F)F (stereo not shown) [Compound 340]
Result: 20

Request: Likewise for COC1CCCN(C(=O)c2cc(NS(=O)(=O)C(F)(F)F)c(Cl)c(F)c2C)C1 (stereo not shown) [Compound 334] ?
Result: 10
